- METHOD SUMMARY: Inhibition of Phosphodiesterase 5 from porcine platelets
pIC50: −log10 of the molar value.
Below is a list of entries, each paired with its recorded pIC50 value.

{"STRUCTURE SMILES": "COc1ccc(CNc2nnc(Cl)c3ccc(C#N)cc23)cc1", "pIC50": 6.85}
{"STRUCTURE SMILES": "COc1ccc(CNc2nnc(Cl)c3ccc(C#N)cc23)cc1Cl", "pIC50": 8.32}
{"STRUCTURE SMILES": "COc1ccc(CNc2nnc(Cl)c3ccc(C(F)(F)F)cc23)cc1Cl", "pIC50": 8.28}
{"STRUCTURE SMILES": "COc1ccc(CNc2nnc(Cl)c3cc(Cl)ccc23)cc1Cl", "pIC50": 6.09}
{"STRUCTURE SMILES": "O=[N+]([O-])c1ccc2c(Cl)nnc(NCc3ccc4c(c3)OCO4)c2c1", "pIC50": 7.20}
{"STRUCTURE SMILES": "CCOc1ccc(CNc2nnc(Cl)c3ccc(C#N)cc23)cc1Cl", "pIC50": 7.31}
{"STRUCTURE SMILES": "COc1ccc(CNc2nnc(Cl)c3ccc([N+](=O)[O-])cc23)cc1Cl", "pIC50": 8.46}
{"STRUCTURE SMILES": "COc1ccc(CNc2nnc(Cl)c3cc(C#N)ccc23)cc1Cl", "pIC50": 6.85}
